IC50 values for Protein kinase C theta type (Homo sapiens, UniProt Q04759) compiled from several publications are listed below.
value-type: IC50 (µM)

- smiles-structure: "CCN1CCN(CCOc2ccc(-c3c(C)ncc(C#N)c3Nc3ccc4[nH]ccc4c3C)cc2)CC1"
  experimental-target: "Protein kinase C theta type (Homo sapiens, UniProt Q04759)"
  IC50 / µM: 0.044

(A) Cc1c(Nc2c(C#N)cnc3sc(-c4cc5ccccc5s4)cc23)ccc2[nH]ccc12
(B) CN1C(C)(C)CC(Nc2nc(Nc3cc(-c4ccoc4)cc(C(F)(F)F)c3)ncc2F)CC1(C)C
Could you determine which record has the numerically smaller IC50? Candidates: A and B API: response body contains the label of the selected item.
A

(I) CN1C(C)(C)CC(Nc2nc(Nc3cccc(-c4cc5ccccc5s4)c3)ncc2F)CC1(C)C
(II) Cc1c(Nc2c(C#N)cnc3sc(-c4ccc(S(=O)(=O)N(C)CCN(C)C)cc4)cc23)ccc2[nH]ccc12
Could you determine which record has the numerically smaller IC50? Candidates: I and II API: response body contains the label of the selected item.
II

* * *

pIC50: −log10 of the molar value.
pIC50 values for Protein kinase C theta type (Homo sapiens, UniProt Q04759) compiled from several publications are listed below.
value-type: pIC50

(1) CS(=O)(=O)Nc1ccc(-c2cc3c(Nc4ccc5[nH]ccc5c4)c(C#N)cnc3s2)cc1
(2) CN1C(C)(C)CC(Nc2nc(Nc3ccc(N4CCOCC4)c(C(F)(F)F)c3)ncc2F)CC1(C)C
(3) N#Cc1cnc2sc(-c3cscc3C=O)cc2c1Nc1ccc2[nH]ccc2c1
(4) N#Cc1cnc2sc(/C=C/C(=O)O)cc2c1Nc1ccc2[nH]ccc2c1
sort_by: pIC50; order: ascending; scope: items listed above When ranking, write the labels in the order the request describes.
4, 1, 3, 2

(P) CN1C(C)(C)CC(Nc2nc(Nc3ccc(-c4ccoc4)c(F)c3)ncc2F)CC1(C)C
(Q) Cc1c[nH]c2ccc(Nc3c(C#N)cnc4sc(-c5ccccc5)cc34)cc12
Could you determine which record has the numerically smaller pIC50? Candidates: P and Q API: response body contains the label of the selected item.
Q

(1) CCN1CCN(CC/C=C/c2cc3c(Nc4ccc5[nH]ccc5c4)c(C#N)cnc3s2)CC1
(2) Cc1cc2[nH]ccc2cc1Nc1c(C#N)cnc2sc(-c3ccccc3)cc12
Could you determine which record has the numerically smaller pIC50? Candidates: 1 and 2 API: response body contains the label of the selected item.
1

(P) Cc1c(Nc2c(C#N)cnc3sc(-c4ccc(OC[C@@H](O)CO)cc4)cc23)ccc2[nH]ccc12
(Q) N[C@H]1CC[C@H](CNc2nc(NCc3ccccc3OC(F)(F)F)ncc2[N+](=O)[O-])CC1
Could you determine which record has the numerically smaller pIC50? Candidates: P and Q API: response body contains the label of the selected item.
P
(P: 7.39, Q: 9.00)

* * *

pIC50 values for Protein kinase C theta type (Homo sapiens) compiled from several publications are listed below.
pIC50: −log10 of the molar value.
value-type: pIC50

Solved entries:
- smiles-structure: "Cc1c(Nc2c(C#N)cnc3sc(-c4cnc(N5CCCCC5)nc4)cc23)ccc2[nH]ccc12"
  experimental-target: "Protein kinase C theta type (Homo sapiens)"
  pIC50: 6.55
- smiles-structure: "Cc1c(Nc2c(C#N)cnc3sc(/C=C/C(=O)N4CCC[C@H]4CN4CCCC4)cc23)ccc2[nH]ccc12"
  experimental-target: "Protein kinase C theta type (Homo sapiens)"
  pIC50: 7.49
- smiles-structure: "COc1ccc(Cl)c(Nc2c(C#N)cncc2-c2cc3cc(CN4CCCCC4)ccc3o2)c1"
  experimental-target: "Protein kinase C theta type (Homo sapiens)"
  pIC50: 6.14
- smiles-structure: "Cc1[nH]ncc1CCCNc1ccc2ncc(-c3ccccc3)n2n1"
  experimental-target: "Protein kinase C theta type (Homo sapiens)"
  pIC50: 4.95
- smiles-structure: "COc1ccc(CN(C)C)c(-c2cc3c(Nc4ccc5[nH]ccc5c4C)c(C#N)cnc3s2)c1"
  experimental-target: "Protein kinase C theta type (Homo sapiens)"
  pIC50: 7.80

(P) COC(=O)Nc1ccc(-c2cc3c(Nc4ccc5[nH]ccc5c4)c(C#N)cnc3s2)cc1
(Q) N#Cc1cnc2sc(C3=CCNCC3)cc2c1Nc1cccc2[nH]ccc12
Could you determine which record has the numerically smaller pIC50? Candidates: P and Q API: response body contains the label of the selected item.
P
